Biological target: T1, Cynomolgus monkey glycophorin A on Cynomolgus monkey red blood cells or red blood cell membranes (Cynomolgus monkey)
T1 construct: whole, on cells; also called Cyno RBC; Cynomolgus monkey RBC membranes
Assay: Fab on intact cyno RBC, unbound Fab by ELISA; 20 min after 200-fold dilution
readout label: percentage of input antibody bound (%)

{"binder": "TPP-7795, affinity matured 6C12 Fab (Fab, V domains shown, Tested as Fab) VH: EVQLVQSGAEVKKPGASVKVSCKASGYTFTTYTIHWVRQAPGQGLEWMGYINPKSGWTRYNPKFKGRVTMTRDKSTSTAYMELRSLRSDDTAVYYCQTGTRDYWGQGTTVTVSS VL: DIQLTQSPSFLSASVGDRVTITCRASSSVSYIYWFQQKPGKAPKLLIYATSFLQSGVPSRFSGSGSGTEYTLTISSLQPEDFATYYCHQRNSFPYTFGQGTKLEIK", "numeric value": 39}
{"binder": "TPP-7778, affinity matured 6C12 Fab (Fab, V domains shown, Tested as Fab) VH: EVQLVQSGAEVKKPGASVKVSCKASGYTFTTYAIHWVRQAPGQGLEWMGYINPSSGYTRYNPKFKHRVTMTRDKSTSTAYMELRSLRSDDTAVYYCQTGTRDYWGQGTTVTVSS VL: DIQLTQSPSFLSASVGDRVTITCRASSSVRYIYWFQQKPGKAPKLLIYATSTLQSGVPSRFSGSGSGTEYTLTISSLQPEDFATYYCHQRNSFPYTFGQGTKLEIK", "numeric value": 48}
{"binder": "TPP-7792, affinity matured 6C12 Fab (Fab, V domains shown, Tested as Fab with a 6xHIS tag) VH: EVQLVQSGAEVKKPGASVKVSCKASGYTFTTYAIHWVRQAPGQGLEWMGYINPSSGYTRYNPKFKGRVTMTRDKSTSTAYMELRSLRSDDTAVYYCWTGTRDYWGQGTTVTVSS VL: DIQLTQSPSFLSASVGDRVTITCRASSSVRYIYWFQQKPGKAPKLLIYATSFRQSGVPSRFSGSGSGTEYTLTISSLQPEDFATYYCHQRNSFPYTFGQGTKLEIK", "numeric value": 93}
